Values were extracted from patent US20210388053A1.

# assay system: canine FcRn/B2M protein complex (canine FcRn ECD with C-terminal poly-His tag and canine Beta-2-Microglobulin) (canine)
# method: SPR Biacore 8K, pH 6.0, 25 C; Fc captured by SASA tag on BSA chip, FcRn/B2M 400 nM as analyte
List of kon values.
# output: bare number, implied unit M⁻¹ s⁻¹

{"binder": "YTE variant canine IgG-B Fc polypeptide (Leu24Tyr, Ala26Thr, Thr28Glu) (protein, not shown: small tags and cut ends) CPAPEMLGGPSVFIFPPKPKDTLYITREPEVTCVVVDLDPEDPEVQISWFVDGKQMQTAKTQPREEQFNGTYRVVSVLPIGHQDWLKGKQFTCKVNNKALPSPIERTISKARGQAHQPSVYVLPPSREELSKNTVSLTCLIKDFFPPDIDVEWQSNGQQEPESKYRTTPPQLDEDGSYFLYSKLSVDKSRWQRGDTFICAVMHEALHNHYTQESLSHSPGK", "unit tag": "M⁻¹ s⁻¹", "kon": 662000}

Consider the record given below.
Recorded kon of variant canine IgG-B Fc polypeptide 0YY (Gln83Tyr, Asn208Tyr) (protein, not shown: small tags and cut ends) CPAPEMLGGPSVFIFPPKPKDTLLIARTPEVTCVVVDLDPEDPEVQISWFVDGKQMQTAKTQPREEQFNGTYRVVSVLPIGHYDWLKGKQFTCKVNNKALPSPIERTISKARGQAHQPSVYVLPPSREELSKNTVSLTCLIKDFFPPDIDVEWQSNGQQEPESKYRTTPPQLDEDGSYFLYSKLSVDKSRWQRGDTFICAVMHEALHYHYTQESLSHSPGK , please.
425000
